Catalogue of response values
assay: yeast V-ATPase proton transport modulators, S. cerevisiae, pHLuorin, HTS validation (AID 504600);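 also: plate controls were DMSO for no effect and reference compound for full effect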; settings: S. cerevisiae pHLuorin cytosolic pH, at 10 µM, stronger effect = higher value
experimental readout: response (%)

[[record]]
compound = "C[N+]12CCCCC1C(COC(=O)c1ccc3c(c1)OCO3)CCC2 (stereo not given)"
numeric_value = 1.26

[[record]]
compound = "COC(=O)c1ccc(=O)n(Cc2ccco2)c1"
numeric_value = -0.2

[[record]]
compound = "CC(C)(C)c1csc(N/N=C/c2cccnc2)n1"
numeric_value = 1.92

[[record]]
compound = "CC(=O)OCC(=O)[C@@]12OC3(CCCC3)O[C@@H]1C[C@H]1[C@@H]3CCC4=CC(=O)C=C[C@]4(C)[C@@]3(F)[C@@H](O)C[C@@]12C"
numeric_value = -4.26

[[record]]
compound = "Clc1ccccc1CN1CCc2sccc2C1"
numeric_value = 0.39

